- Procedure Text: superoxide lowering in aged yeast cells, pilot screen, validation compound set (AID 2706);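 note: yeast exposed to compound for one week at 30 degrees C before staining; 100% = mean of all compound wells on the same plate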
- Experimental Context: S. cerevisiae aging, superoxide DHE fluorescence; at 10 µM, stronger effect = lower value
Provide the reported superoxide response (% of plate) of each item.
One number for each entry, in %.

Recorded superoxide response (% of plate), per entry:
CNC[C@H](O)c1cccc(O)c1
96.3
O=C(O)/C=C/c1ccc(O)c(O)c1
106
COc1ccc(C=NCC2COc3ccccc3O2)cc1OC (stereo unspecified)
104
CC(=O)O[C@]1(C(C)=O)CC[C@H]2[C@@H]3C=C(C)C4=CC(=O)CC[C@]4(C)[C@H]3CC[C@@]21C
95.9
CCS(=O)(=O)Nc1cc(OC)c(OC)cc1Cc1nccc2cc(OC)c(OC)cc12
93.2

We now examine a further compound.
Ask: Which superoxide response (% of plate) is listed for `COC(=O)c1ccc(=O)n(Cc2ccco2)c1` ?
Result: 86.5

###

- Procedure Text: RPL19A-GFP modulators, yeast TOR pathway, confirmation, cell-based, S. cerevisiae, flow cytometry, cherry picks, mother/daughter gates (AID 2270)
- Experimental Context: S. cerevisiae RPL19A-GFP strain, 3 h, measured here: daughter cell gate, at 10 µM, stronger effect = lower value, 100 = same GFP as DMSO wells
I'd appreciate it if you could supply GFP response vs DMSO values for the items below.
Numbers only, in %.

Answered examples (3):
COc1ccc(OC)c(CNC(=O)CCC(=O)N2Cc3cccc(OC)c3Oc3ncccc32)c1
100
COc1ccc(N2C(=O)C(Cl)=C(NCc3ccccc3)C2=O)cc1
93
Oc1ccc(/C=N/Nc2nc(-c3cccnc3)nc3ccccc23)c(O)c1
95.3

Report GFP response vs DMSO for every entry below.
1. O=C(COC(=O)c1n[nH]c2ccccc12)c1cc(F)ccc1F
2. O=[N+]([O-])c1c(Nc2ccccn2)cc(Cl)c2nonc12

Result:
[99, 86.3]

Ask: Given `COc1ccccc1C(=O)N1CCN(c2cccc(Cl)c2)CC1` , state its recorded GFP response vs DMSO.
Result: 98.9

###

- Procedure Text: modulators of CIT2-GFP expression in yeast, confirmation, S. cerevisiae, GFP fusion, cherry picks, mother/daughter gates (AID 2274)
- Experimental Context: S. cerevisiae CIT2-GFP strain, flow cytometry, 3 h; at 10 µM; stronger effect = higher value
Outcome Measure: GFP response, % of DMSO (%)
Answers are plain numbers, in %.

Worked cases, answers included:
COc1ccc(N2C(=O)C(Cl)=C(Nc3ccccc3OC)C2=O)cc1
97.3
O=C(COc1ccc(OCc2ccccc2)cc1)NN=C1CCCC1
100

Batch: GFP response, % of DMSO for all items listed.
1. COc1ccc(Br)cc1/C=C/C(=O)c1ccc(NC(C)=O)cc1
2. CCOC(=O)C(=Cc1ccc(F)cc1)C(=O)OCC
3. CN1CCN(C(=O)CC2C(=O)NCCN2Cc2ccc(-c3ccccc3)cc2)CC1 (stereo unspecified)
4. O=C(CSc1nc2ccsc2c(=O)n1CC1CCC(C(=O)O)CC1)c1ccc(F)cc1 (stereo unspecified)
5. Cc1nc2ccc(Br)cn2c1NC(C)(C)C
6. Cc1ccc(N(C(=O)CNC(=O)c2ccco2)C(C(=O)NC2CCCC2)c2cccnc2)cc1C (stereo unspecified)
7. O=C1c2ccsc2SCCN1Cc1cccc(Cl)c1

Result:
1. 98.6
2. 93.9
3. 97.8
4. 92.6
5. 102
6. 102
7. 99.7

Quick request: GFP response, % of DMSO for each listed item, please.
1. CN(C)c1ccc(N=Cc2nc(-c3ccccc3)oc2OC(=O)c2ccccc2)cc1
2. Cc1ccc(C(C[N+](=O)[O-])n2nc(C)cc2C)cc1 (stereo unspecified)

Result:
107
90.9

###

- Procedure Text: RPL19A-GFP modulators, yeast TOR pathway, confirmation, cell-based, S. cerevisiae, flow cytometry, cherry picks, mother/daughter gates (AID 2270)
- Experimental Context: S. cerevisiae RPL19A-GFP strain, 3 h, measured here: daughter cell gate, at 10 µM, stronger effect = lower value, 100 = same GFP as DMSO wells
Would you mind telling me the reported GFP response vs DMSO of each entry?
Answers are plain numbers, in %.

Clc1ccc(OCCn2cnc3ccccc32)c(Cl)c1
82.3

Each molecule below has a recorded value; state its GFP response vs DMSO.
1. CCCc1[nH]nc2c1C(c1ccc(OC(=O)c3ccco3)cc1)C(C#N)=C(N)O2 (stereo not given)
2. Cc1nc(Sc2ccc(Br)cc2)c(C#N)c(C)c1[N+](=O)[O-]
3. N#Cc1cc([N+](=O)[O-])c(-n2nnc3ccccc32)c([N+](=O)[O-])c1
4. CC(=O)Nc1ccc(Nc2cc(C)nc3c(-c4ccc(Cl)cc4)c(C)nn23)cc1

Result:
1: 101; 2: 105; 3: 94.7; 4: 94.4

###

- Procedure Text: RPL19A-GFP modulators, yeast TOR pathway, confirmation, cell-based, S. cerevisiae, flow cytometry, cherry picks, mother/daughter gates (AID 2270)
- Experimental Context: S. cerevisiae RPL19A-GFP strain, 3 h, measured here: daughter cell gate, at 10 µM, stronger effect = lower value, 100 = same GFP as DMSO wells
Could you please report measured GFP response vs DMSO for the items listed next?
Give bare numbers, in %.

A selection of reference data follows.
O=C(OCn1ncc(Br)c(Br)c1=O)c1ccccc1Cl
96.2
Nc1nc(SCC(=O)Nc2cc(C(F)(F)F)ccc2N2CCOCC2)n[nH]1
99.9
O=C1c2ccsc2SCCN1Cc1ccc(F)cc1
94.4

// for each compound in input: emit GFP response vs DMSO
1. O=[N+]([O-])c1ccc(Sc2ccccc2Cl)nc1
2. COc1ccccc1N=Nc1ccc(O)c2ncccc12
3. Cc1ccc(N(C(=O)CNC(=O)c2ccco2)C(C(=O)NC2CCCC2)c2cccnc2)cc1C (stereo unspecified)

Result:
[104, 101, 100]

###

For each of the molecules below, state its GFP response vs DMSO.
- Procedure Text: RPL19A-GFP modulators, yeast TOR pathway, confirmation, cell-based, S. cerevisiae, flow cytometry, cherry picks, mother/daughter gates (AID 2270)
- Experimental Context: S. cerevisiae RPL19A-GFP strain, 3 h, measured here: mother cell gate, at 10 µM, stronger effect = lower value, 100 = same GFP as DMSO wells
Give your result as the value with the unit written after it.

Illustrative cases are given below, each with its answer.
Cc1ccc(Cl)cc1N1CCN(C(=O)CSc2ccsc2[N+](=O)[O-])CC1
97.8%
CC(=O)Nc1cccc(/C(C)=N/NC(=O)c2ccccc2Cl)c1
98.7%

Please report GFP response vs DMSO for every entry that follows.
1. CN1C(=O)c2cccc3c(Cl)ccc(c23)C1=O
2. N=c1n(CCN2CCCCC2)c2ccccc2n1CC(=O)c1ccc(Cl)c(Cl)c1
3. COc1ccc(/C=C/C(=O)c2ccccc2O)cc1
4. C=CCn1c(=O)c(C(=O)Nc2ccccc2C(=O)OCC)c(O)c2ccccc21

Result:
["98%", "100%", "98.8%", "101%"]

Count: 4. Required value per item: GFP response vs DMSO.
1. O=c1oc(/C=C/c2ccc([N+](=O)[O-])s2)nc2ccccc12
2. CCOc1ccc(NC2=C(Cl)C(=O)N(Cc3ccccc3)C2=O)cc1
3. CCOC(=O)C(=CNNc1cccc(Cl)c1)C(=O)OCC
4. COc1ccc(N=Cc2nc(-c3ccccc3)oc2OC(C)=O)cc1

Result:
["108%", "100%", "102%", "101%"]

###

- Procedure Text: modulators of CIT2-GFP expression in yeast, confirmation, S. cerevisiae, GFP fusion, cherry picks, mother/daughter gates (AID 2274)
- Experimental Context: S. cerevisiae CIT2-GFP strain, flow cytometry, 3 h; measured here: mother cell gate; at 10 µM; stronger effect = higher value
Outcome Measure: GFP response, % of DMSO
Reply with the number, then its unit.

Recorded results for 5 molecules are shown here.
Clc1ccc(-c2nnnn2-c2ccc(Cl)cc2)cc1
99.3%
CC(C)C(=O)Nc1ccc(NC(=O)c2cc3ccccc3o2)cc1
100%
CCOC(=O)c1c(C)[nH]c(C)c1C(=O)COC(=O)c1cc2ccccc2cc1O
96.7%
O=[N+]([O-])c1cc(C(F)(F)F)ccc1Sc1ccccn1
103%
CCOC(=O)CNc1c(-c2ccccc2)nc2ccc(Cl)cn12
93.3%

Return reported GFP response, % of DMSO values for all items listed beneath this line.
1. Cn1cc(/C=C/c2cc[n+](C)cc2)c2cc(Cl)ccc21
2. O=C(O)CCc1ccc(-c2ccccc2)o1

Result:
1. 124%
2. 92.6%

###

I'd appreciate it if you could supply GFP response vs DMSO values for the items below.
- Procedure Text: modulators of MEP2-GFP levels in yeast, confirmation, S. cerevisiae, flow cytometry GFP, cherry picks (AID 2272);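 note: ratio of well signal to plate DMSO mean so 100% equals DMSO level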
- Experimental Context: S. cerevisiae MEP2-GFP strain, 3 h, at 10 µM, stronger effect = higher value
Give bare numbers, in %.

CCN(CC)C(=O)Cn1c(C)c(/C=C/c2cc[n+](C)cc2)c2ccccc21
126

// for each compound in input: emit GFP response vs DMSO
1. Cn1c(N2CCCC2)nc2c1c(=O)n(Cc1ccc(Cl)cc1)c(=O)n2C
2. COc1cc(-c2noc(-c3cccc(Cl)c3)n2)cc(OC)c1OC
3. O=C(Nc1c2c(nn1-c1ccccc1)CS(=O)C2)c1ccco1 (stereo unspecified)
4. CCn1c(=O)c(C(=O)NCCc2ccccc2)c(O)c2ccccc21
5. Cc1sc(NC(=O)c2ccco2)nc1-c1ccccc1

Result:
[94.7, 103, 99.3, 103, 102]
